Would you kindly list Tm for each of these sequences?
assay: melting temperature; fluorescence melt of hairpins on a sequencing array, two-state fit, raised by 9.35 °C to match UV melts; conditions: sodium 0.088 M
Numbers only, in °C.

Reference set (8 entries):
INSERT INTO assay_data (polymer_sequence, parameter, assay_value) VALUES
  ('GCGACGCGAAAGCGAGGC ((..(((....)))..))', 'Tm', 54.6),
  ('GATCAACCGTTGATC ((((((...))))))', 'Tm', 41.1),
  ('GCTCGTGGAAACACGGGC ((.((((....)))).))', 'Tm', 62.2),
  ('GGCACTTCGAAAGAAGCC (((..(((....))))))', 'Tm', 32.2),
  ('GGCCATGGAAACACGGCC ((((.((....)).))))', 'Tm', 51.7),
  ('AAGTGGAAACACTT (((((....)))))', 'Tm', 42),
  ('GATCATCGATATGATC ((((((....))))))', 'Tm', 45.3),
  ('GGCGCCGAAAGGCGTGCC ((((((....)))..)))', 'Tm', 54.2);

Record Tm for all entries; do not skip any.
1. ATGCAGAAATGCAT (((((....)))))
2. GATCCCAGCGGGGATC ((((((....))))))
3. GATCAGACCTCTGATC ((((((....))))))
4. GCCACGCGAAAGCGTAGC ((.((((....)))).))
5. GATCGTGGTACGATC ((((((...))))))
6. GTGGCCTCGAAAGAGCAC (((..(((....))))))
7. CGGACGGAAACGTCACCG ((((((....)))..)))

Outgoing:
46.2
60.6
48.4
55.8
58.2
37.4
34.4

Record Tm for all entries; do not skip any.
1. GATCAGATACCTGATC ((((((....))))))
2. GCTCGCCGAAAGGCAGC (((.(((....))))))

Outgoing:
1: 48; 2: 62.6

Record Tm for all entries; do not skip any.
1. GCGGTCGGAAACGGCTGC ((.(.((....)).).))
2. GATCTGACCCCAGATC ((((((....))))))
3. GGTCGCCGAAAGGCAACC (((.(((....))).)))
4. GCCCTGCGAAAGCTGAGC ((.(.((....)).).))

Outgoing:
53.4
45.8
56.1
47.2

Incoming: Endpoint output: Tm of GTTTCCGAAAGGAAAAAC ((((((....)))..))) . Value?
Outgoing: 36.8
